Listed below: pKd values for each entry.
- experimental target: T1, IFN-αG (human, UniProt P01569 24-189)
- T1 construct: also called IFN-α5; alpha G
- protocol summary: ProteOn, one antigen concentration
Please note pKd is a logarithmic value: minus log10 of concentration in mol/L. Answer with that number alone.

Example binders with recorded pKd:
binder	pKd
IFWM3338 (antibody, V domains shown, VH IFWH591, VL IFWL1091; converted mAb; also called IFWB3073) VH: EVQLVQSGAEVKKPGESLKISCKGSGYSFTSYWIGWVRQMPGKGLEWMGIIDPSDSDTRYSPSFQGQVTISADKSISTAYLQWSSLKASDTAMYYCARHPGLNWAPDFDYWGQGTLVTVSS VL: DIQMTQSPSSLSASVGDRVTITCRASQSIRNTNLNWYQQKPGKAPKLLIHWASSLQSGVPSRFSGSGSGTDFTLTISSLQPEDFATYYCQQGYDTPFTFGQGTKVEIK	10.34
IFWM3318 (antibody, V domains shown, VH IFWH591, VL IFWL1038; converted mAb; also called IFWB3053) VH: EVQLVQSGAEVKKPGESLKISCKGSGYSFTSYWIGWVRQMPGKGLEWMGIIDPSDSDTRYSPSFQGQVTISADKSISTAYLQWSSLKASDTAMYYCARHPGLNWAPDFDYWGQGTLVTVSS VL: DIQMTQSPSSLSASVGDRVTITCRASQSISEYLNWYQQKPGKAPKLLIYFASSLQSGVPSRFSGSGSGTDFTLTISSLQPEDFATYYCQQSHSLPITFGQGTKVEIK	10.40
IFWM3345 (antibody, V domains shown, VH IFWH624, VL IFWL1000; converted mAb; also called IFWB3080) VH: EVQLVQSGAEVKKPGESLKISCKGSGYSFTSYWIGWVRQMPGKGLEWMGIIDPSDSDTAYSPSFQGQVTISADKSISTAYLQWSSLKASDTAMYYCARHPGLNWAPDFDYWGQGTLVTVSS VL: DIQMTQSPSSLSASVGDRVTITCRASQSITNFLNWYQQKPGKAPKLLIYFASSLQSGVPSRFSGSGSGTDFTLTISSLQPEDFATYYCQQSLDFPLTFGQGTKVEIK	10.04

Per the records, this binder ( IFWM3343 (antibody, V domains shown, VH IFWH624, VL IFWL997; converted mAb; also called IFWB3078) VH: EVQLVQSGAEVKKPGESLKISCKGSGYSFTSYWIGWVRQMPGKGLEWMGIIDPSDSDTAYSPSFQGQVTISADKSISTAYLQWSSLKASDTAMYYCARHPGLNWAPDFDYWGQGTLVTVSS VL: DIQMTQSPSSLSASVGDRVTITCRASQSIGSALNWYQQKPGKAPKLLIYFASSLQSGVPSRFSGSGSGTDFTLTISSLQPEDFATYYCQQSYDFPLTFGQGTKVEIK ) has pKd equal to 10.22

The recorded pKd for IFWM3328 (antibody, V domains shown, VH IFWH591, VL IFWL1064; converted mAb; also called IFWB3063) VH: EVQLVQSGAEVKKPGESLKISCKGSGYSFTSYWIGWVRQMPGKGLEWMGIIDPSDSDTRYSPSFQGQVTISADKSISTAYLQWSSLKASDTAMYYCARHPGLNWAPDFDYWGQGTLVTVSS VL: DIQMTQSPSSLSASVGDRVTITCRASQSINNLNWYQQKPGKAPKLLIYWASSLQSGVPSRFSGSGSGTDFTLTISSLQPEDFATYYCQQGYDTPFTFGQGTKVEIK is 10.14

Summary for this binder, IFWM3359 (antibody, V domains shown, VH IFWH624, VL IFWL1047; converted mAb; also called IFWB3094) VH: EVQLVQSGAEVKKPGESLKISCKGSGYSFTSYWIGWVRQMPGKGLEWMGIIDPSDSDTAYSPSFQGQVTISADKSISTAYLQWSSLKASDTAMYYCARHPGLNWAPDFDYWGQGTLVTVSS VL: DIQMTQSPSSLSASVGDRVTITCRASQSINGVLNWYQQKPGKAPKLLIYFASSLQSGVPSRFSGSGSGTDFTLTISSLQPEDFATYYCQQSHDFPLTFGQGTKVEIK : pKd is 10.40

Value of pKd reported for the binder IFWM3335 (antibody, V domains shown, VH IFWH591, VL IFWL1084; converted mAb; also called IFWB3070) VH: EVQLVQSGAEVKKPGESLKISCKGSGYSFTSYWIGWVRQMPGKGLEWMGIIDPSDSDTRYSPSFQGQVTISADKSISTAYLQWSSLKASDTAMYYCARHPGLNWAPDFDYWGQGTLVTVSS VL: DIQMTQSPSSLSASVGDRVTITCRASQSINYLNWYQQKPGKAPKLLIYGASSLQSGVPSRFSGSGSGTDFTLTISSLQPEDFATYYCQQSHDWPITFGQGTKVEIK is 10.11

For reference, reported pKd for IFWM3315 (antibody, V domains shown, VH IFWH591, VL IFWL1017; converted mAb; also called IFWB3050) VH: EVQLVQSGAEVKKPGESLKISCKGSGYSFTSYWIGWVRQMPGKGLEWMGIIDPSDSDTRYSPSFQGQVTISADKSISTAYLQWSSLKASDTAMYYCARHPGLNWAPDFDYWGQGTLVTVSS VL: DIQMTQSPSSLSASVGDRVTITCRASQSITSSLNWYQQKPGKAPKLLIYFASSLQSGVPSRFSGSGSGTDFTLTISSLQPEDFATYYCQQSFDLPLTFGQGTKVEIK stands at 10.21

The binder identified as IFWM3321 (antibody, V domains shown, VH IFWH591, VL IFWL1048; converted mAb; also called IFWB3056) VH: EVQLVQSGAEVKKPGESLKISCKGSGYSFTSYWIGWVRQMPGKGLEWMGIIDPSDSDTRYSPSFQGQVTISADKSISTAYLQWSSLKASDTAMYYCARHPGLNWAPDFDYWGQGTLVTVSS VL: DIQMTQSPSSLSASVGDRVTITCRASQSIDGALNWYQQKPGKAPKLLIYFASSLQSGVPSRFSGSGSGTDFTLTISSLQPEDFATYYCQQAYDFPLTFGQGTKVEIK registered its pKd at 10.44

Reported pKd ( IFWM3325 (antibody, V domains shown, VH IFWH591, VL IFWL1060; converted mAb; also called IFWB3060) VH: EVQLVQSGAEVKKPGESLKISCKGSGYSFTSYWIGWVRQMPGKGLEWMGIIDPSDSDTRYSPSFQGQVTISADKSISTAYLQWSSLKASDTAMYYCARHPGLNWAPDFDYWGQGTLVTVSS VL: DIQMTQSPSSLSASVGDRVTITCRASQSIRNSLNWYQQKPGKAPKLLIKWASSLQSGVPSRFSGSGSGTDFTLTISSLQPEDFATYYCQQLYDWPLTFGQGTKVEIK ) = 10.48
